# tgt: T513E PDK1 PH domain (Homo sapiens, UniProt O15530, T513E)
# Sequence (O15530 459-550 T513E limits assumed): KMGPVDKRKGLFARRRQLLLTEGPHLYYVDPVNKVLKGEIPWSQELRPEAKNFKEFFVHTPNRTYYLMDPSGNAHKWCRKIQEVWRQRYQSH
# condition-details: read-out: KD(IP6); free T513E PH domain in solution, 25 °C, physiological buffer

{"compound": "O=P(O)(O)OC1C(OP(=O)(O)O)C(OP(=O)(O)O)C(OP(=O)(O)O)C(OP(=O)(O)O)C1OP(=O)(O)O (stereo not shown) [IP6, Inositol 1,2,3,4,5,6-hexakisphosphate]", "Kd, µM": 30}
